Source of measurements: patent US20210255193A1

# MEASUREMENT TARGET: ABCE1 ATP-binding cassette sub-family E member 1 (Homo sapiens, UniProt P61221)
# Construct: isoTOP-ABPP experiments performed in cell lysates (in vitro); endogenous in cells; host or cells: soluble proteome of human cancer cell lines (MDA-MB-231, Ramos, Jurkat)
# TEST PROTOCOL: competitive isoTOP-ABPP
# RUN PARAMETERS: 50 uM, 231 sol, in vitro
READOUT: isoTOP-ABPP reactivity ratio at lysine P61221_K478

// lookup isoTOP-ABPP reactivity ratio at lysine P61221_K478 for COc1cc(CCC(=O)Oc2ccc([N+](=O)[O-])cc2[N+](=O)[O-])cc(OC)c1OC
1.2

Given the compound Cn1cc(CC(=O)Oc2ccc([N+](=O)[O-])cc2[N+](=O)[O-])c2ccccc21 , what is its reported isoTOP-ABPP reactivity ratio at lysine P61221_K478?
1.2

Entry O=C(CN1C(=O)c2ccccc2C1=O)Oc1c(F)c(F)c(F)c(F)c1F : reported isoTOP-ABPP reactivity ratio at lysine P61221_K478 = ?
2.1

Which value of isoTOP-ABPP reactivity ratio at lysine P61221_K478 has been reported for O=C(Oc1c(F)c(F)c(F)c(F)c1F)c1ccc2ccccc2n1 in the records?
1.5

Can you look up the measured isoTOP-ABPP reactivity ratio at lysine P61221_K478 of O=C(Oc1ccc([N+](=O)[O-])cc1[N+](=O)[O-])c1cc(C(F)(F)F)cc(C(F)(F)F)c1 for me?
1.1

Consider the compound O=C(CCc1cn(-c2ccccc2)nc1-c1ccccc1)Oc1ccc([N+](=O)[O-])cc1[N+](=O)[O-] and give its measured isoTOP-ABPP reactivity ratio at lysine P61221_K478.
1.2

# isoTOP-ABPP reactivity ratio at lysine P61221_K478 lookup, item O=C(Oc1ccc([N+](=O)[O-])cc1[N+](=O)[O-])C(c1ccccc1)c1ccccc1 [fragment 30, 2,4-Dinitrophenyl 2,2-diphenylacetate]
1.1
